target: full length (mature) cynomolgus monkey TSLP, recombinant (cynomolgus monkey); test: SPR, biotinylated TSLP on SA chip (Biacore 4000)
pKd: −log10 of the molar value.
MEASUREMENT LABEL: pKd

- BINDER: "DOM30h-440-65 (protein) VL: DIQMTQSPSSLSASVGDRVTITCRASRPIRNWLDWYQQKPGKAPKLLIWGASHLQSGVPSRFSGSGSGTDFTLTISSLQPEDFATYYCMQIGEDPVTFGQGTKVEIKR"
  pKd: 8.51

1: DOM30h-440-53 (protein) VL: DIQMTQSPSSLSASVGDRVTITCRASRPIRNWLDWYQQKPGKAPKLLIWGASHLQSGVPSRFSGSGSGTDFTLTISSLQPEDFATYYCLQVGEDPVTFGQGTKVEIKR
2: DOM30h-440-58 (protein) VL: DIQMTQSPSSLSASVGDRVTITCRASRPIRNWLDWYQQKPGKAPKLLIWGASHLQSGVPSRFSGSGSGTDFTLTISSLQPEDFATYYCLQIADDPVTFGQGTKVEIKR
Returns: the label, 1 or 2 , whose recorded pKd is the lower number. Please identify the chosen entry by its label.
1
(1: 8.24, 2: 8.47)
